I'd appreciate it if you could supply melting point values for the items below.

melting point lookup needed for O=c1[nH]c2ccc(I)cc2o1 , thanks.
209 to 211 °C

Cool, now Cc1cc(C)c(C)c(Oc2c(C#N)c(C)nn2C)c1
69 to 71 °C

Cool, now N#Cc1cccn2ccnc12
169 to 171 °C

Cool, now CCc1ccc(-c2csc(N)n2)cc1
120 to 122 °C

Cool, now Cc1ccc(-c2nnc3n2CCCCC3)cc1N
171 to 173 °C

Cool, now CCOC(=O)c1sc2ncnc(Cl)c2c1C
113 to 115 °C

Cool, now CC(=O)Nc1cccc(N)c1C
142 to 144 °C

Cool, now O=C(O)Cc1csc(NC(=O)c2ccccc2I)n1
167 to 169 °C

Cool, now COc1ccc(-c2ccc(C(=O)O)c(F)c2)c(F)c1
212 to 214 °C

Cool, now O=S1(=O)CCC(O)c2ccccc21 (centres undefined)
94 to 96 °C

Cool, now Nc1c(C(=O)O)nnc2ccccc12
257 to 259 °C

Cool, now Cc1nn(CCCl)c(C)c1C(=O)O
139 to 141 °C

Cool, now CCc1nc2ccccc2n1CC(=O)O
232 to 234 °C

Cool, now Cc1ccc(NC(=O)C(=O)NN)cc1
204 to 206 °C

----------
I'd appreciate it if you could supply melting point values for the items below.

melting point lookup needed for COc1ccc(NS(=O)(=O)c2ccc(N3CCCC3)c(N)c2)cc1 , thanks.
40 to 42 °C

Cool, now NC(=O)c1ccccc1OCCO
112 to 114 °C

Cool, now Cc1ccc(C#N)c(=O)n1C
129 to 131 °C

Cool, now CCN(CC)S(=O)(=O)c1ccc(-c2csc(N)n2)cc1
234 to 236 °C

Cool, now CS(=O)(=O)c1ccc(C(=O)c2ccccc2)cc1
131 to 133 °C

Cool, now NC(=O)N1CCCC1CO (stereo not drawn)
94 to 96 °C

Cool, now CC(=O)Nc1cccc2c1NCCC2
108 to 110 °C

Cool, now NC(=O)c1cn(CC(=O)O)c2ccccc12
239 to 241 °C

Cool, now COc1ccc(NS(=O)(=O)c2cc(C(=O)O)ccc2C)cc1
71 to 73 °C

Cool, now O=C(CS)Nc1ccccn1
93 to 95 °C

Cool, now CN1CC(=O)N(c2cccc([N+](=O)[O-])c2)C1=O
144 to 146 °C

Cool, now Cc1cc(C)n(Cc2cccc(C(=O)O)c2)n1
220 to 222 °C

Cool, now CNC(=O)NCCC(=O)O
129 to 131 °C

----------
endpointName: melting point

melting point lookup needed for Nc1ncc(C(=O)O)cc1Br , thanks.
299 to 301 °C

Cool, now COC(=O)c1cc(C)c(C)c(S(=O)(=O)Cl)c1
61 to 63 °C

Cool, now O=C(O)COc1cccc(C(F)(F)F)c1
85 to 87 °C

Cool, now NC(=O)Cn1ccc(N)n1
112 to 114 °C

Cool, now Cn1cc(-c2nc3ccccn3c2N)cn1
149 to 151 °C

Cool, now COc1ccc(CCN2C(=O)NC(=O)C2=O)cc1
179 to 181 °C

Cool, now COC(=O)c1sc(Cl)nc1Cl
54 to 56 °C

Cool, now CCc1ccc(N)c(C(=O)OC)c1
83 to 85 °C

Cool, now COC(=O)C1CN(CC#N)CCO1 (stereo not drawn)
79 to 81 °C

Cool, now Cc1c(C(=O)O)cccc1N1CCNC1=O
221 to 223 °C

Cool, now C=CC(=O)ON=C(N)c1ccc(Cl)cc1
120 to 122 °C

Cool, now O=C1NC(=O)N(CCc2cccs2)C1=O
118 to 120 °C

Cool, now Nc1ccc(N2CCCC2)cc1C(=O)O
148 to 150 °C

Cool, now Clc1nc(C2CC2)nc2scc(-c3ccccc3)c12
77 to 79 °C

Cool, now N#CCc1c[nH]c2cc(F)ccc12
52 to 54 °C

Cool, now O=C(O)C(Cc1ccccc1)Cc1ccc(Cl)cc1 (stereo not drawn)
79 to 81 °C

Cool, now Cc1cc(Cl)n2nc(C(F)(F)F)nc2n1
106 to 108 °C

Cool, now Nc1ccc(Oc2ccc(Cl)nn2)cc1
105 to 107 °C

Cool, now NCC(O)c1ccco1 (stereo not drawn)
80 to 82 °C

Cool, now CC(=O)Nc1ccc(S(=O)(=O)Cl)cc1[N+](=O)[O-]
89 to 91 °C

Cool, now CCOc1ccc(N)cc1CN1CCCC1
58 to 60 °C

Cool, now CC(C)C(NC(=O)C=Cc1ccc(C(N)=O)cc1)C(=O)O (stereo not drawn)
235 to 237 °C

Cool, now COC(=O)C(Cc1c[nH]c2ccccc12)NC(=O)c1ccc2ccccc2c1 (stereo not drawn)
182 to 184 °C

Cool, now O=C(O)C1(c2ccccc2F)CCCC1
106 to 108 °C

Cool, now O=C1CC(C(=O)O)C1
58 to 60 °C

Cool, now Oc1nnc(-c2ccccc2)o1
138 to 140 °C

Cool, now Cc1ccc2c(c1)C(=O)N(CCC(=O)O)C2=O
163 to 165 °C

Cool, now COCCCC(N)=S
48 to 50 °C
